Biological target: Farnesyl-protein transferase from bovine brain (partially purified) (Bos taurus, UniProt P29702+P49355)
Construct: Farnesyl-protein transferase was prepared from bovine brain; from tissue; host or cells: bovine brain (cerebral lobes); Ras substrate expressed in E. coli
Experiment: Inhibition of Ras farnesylation in vitro by tetrapeptides
Assay type: biochemical
Peptide text beside a SMILES is read from it.
assay_endpoint: pIC50
Numbers only, as −log10 of the molar value.

Q: What value of pIC50 has been recorded for this entry: CC[C@H](C)[C@H](NC(=O)[C@@H](NC(=O)[C@@H](N)CS)C(C)C)C(=O)N[C@@H](CCSC)C(=O)O [CVIM] (H-CVIM-OH)
Ans: 7.00

---

Molecular target: Farnesyl-protein transferase from bovine brain (partially purified) (Bos taurus, UniProt P29702+P49355)
Construct: Farnesyl-protein transferase was prepared from bovine brain; from tissue; host or cells: bovine brain (cerebral lobes); Ras substrate expressed in E. coli
Assay: Inhibition of Ras farnesylation in vitro by tetrapeptides
Assay type: biochemical
Settings: Ras-CVLS at 3.5 µM, 0.25 µM [3H]FPP (both substrates at KM); average of 2-5 determinations; read-out: IC50
Square brackets hold non-standard residues; d marks the D form. Peptide text beside a SMILES is read from it. Phe(4-F) = N[C@@H](Cc1ccc(F)cc1)C(=O)O
Rule: IC50 below 100 nM gives condition met. Equal to or above 100 nM gives condition not met.

INSERT INTO measurements (molecule, label_value) VALUES
  ('CC[C@H](C)[C@H](NC(=O)[C@@H](N)CS)C(=O)N[C@@H](Cc1ccccc1)C(=O)N[C@@H](CCC(N)=O)C(=O)O [CIFQ, Cys-Ile-Phe-Gln] (H-CIFQ-OH)', 'condition met'),
  ('CC[C@H](C)[C@H](NC(=O)[C@H](C)NC(=O)[C@@H](N)CS)C(=O)N[C@@H](CCSC)C(=O)O [CAIM] (H-CAIM-OH)', 'condition not met'),
  ('CC[C@H](C)[C@H](NC(=O)[C@@H](N)CS)C(=O)N[C@@H](Cc1ccc(F)cc1)C(=O)N[C@@H](CCSC)C(=O)O [CI(p-fluoro-F)M] (H-CI[Phe(4-F)]M-OH)', 'condition met'),
  ('CC[C@H](C)[C@H](NC(=O)[C@H](C)NC(=O)[C@@H](N)CS)C(=O)N[C@@H](CO)C(=O)O [CAIS] (H-CAIS-OH)', 'condition not met');

Please examine the following record next.
Q: Regarding CC[C@H](C)[C@H](NC(=O)[C@@H](N)CS)C(=O)N[C@@H](Cc1ccccc1)C(=O)N[C@@H](CCSC)C(=O)O [CIFM, Cys-Ile-Phe-Met] (H-CIFM-OH) , kindly confirm whether its IC50 is beneath 100 nM.
Ans: condition met
